subject.of.test: Ba/F3 EGFR L858R/T790M/C797S mutants (Homo sapiens, UniProt P00533, T790M/C797S/L858R, cells depend on it)
Sequence (P00533 whole entry T790M/C797S/L858R): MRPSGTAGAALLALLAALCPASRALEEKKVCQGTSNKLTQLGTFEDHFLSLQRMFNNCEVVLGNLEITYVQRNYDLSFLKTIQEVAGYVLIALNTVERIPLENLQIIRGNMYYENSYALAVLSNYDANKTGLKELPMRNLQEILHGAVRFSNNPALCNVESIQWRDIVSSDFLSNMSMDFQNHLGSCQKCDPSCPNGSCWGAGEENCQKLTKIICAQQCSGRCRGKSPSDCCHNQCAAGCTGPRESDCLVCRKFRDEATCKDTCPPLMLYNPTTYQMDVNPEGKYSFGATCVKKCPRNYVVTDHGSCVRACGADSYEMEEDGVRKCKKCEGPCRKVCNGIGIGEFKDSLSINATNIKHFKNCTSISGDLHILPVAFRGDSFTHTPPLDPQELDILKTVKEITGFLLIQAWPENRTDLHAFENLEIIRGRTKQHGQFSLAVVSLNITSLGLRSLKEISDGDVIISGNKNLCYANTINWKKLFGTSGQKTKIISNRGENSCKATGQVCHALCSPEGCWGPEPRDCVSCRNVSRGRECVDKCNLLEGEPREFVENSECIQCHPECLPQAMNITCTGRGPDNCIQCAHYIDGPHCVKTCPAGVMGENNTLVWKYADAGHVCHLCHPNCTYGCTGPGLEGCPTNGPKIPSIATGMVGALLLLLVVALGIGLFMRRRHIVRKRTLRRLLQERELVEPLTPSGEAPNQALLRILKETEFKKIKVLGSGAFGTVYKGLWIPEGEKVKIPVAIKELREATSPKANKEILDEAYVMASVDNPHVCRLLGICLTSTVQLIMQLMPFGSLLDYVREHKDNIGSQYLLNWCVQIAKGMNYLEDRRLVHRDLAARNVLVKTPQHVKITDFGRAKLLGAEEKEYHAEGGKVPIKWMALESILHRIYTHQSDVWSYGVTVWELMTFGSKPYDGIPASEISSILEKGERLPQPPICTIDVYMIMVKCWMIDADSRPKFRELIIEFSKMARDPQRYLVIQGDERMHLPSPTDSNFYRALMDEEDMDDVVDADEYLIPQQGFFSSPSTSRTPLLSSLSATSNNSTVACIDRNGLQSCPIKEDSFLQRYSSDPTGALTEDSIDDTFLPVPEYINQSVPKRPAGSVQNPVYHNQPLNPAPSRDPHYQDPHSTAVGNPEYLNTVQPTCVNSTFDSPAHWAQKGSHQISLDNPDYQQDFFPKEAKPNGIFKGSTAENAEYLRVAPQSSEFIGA
procedure.summary: CellTiter-Glo cell viability, Ba/F3 EGFR L858R/T790M/C797S cells
Assay type: cell-based, murine
applied.conditions: 72 hours, read-out: Ba/F3 EGFR mutant cell (IC50, nM) L/T/C
measurement.name: GI50 (nM)

molecule="CCS(=O)(=O)Nc1cc(OC)ccc1Nc1nc(Nc2cc(C)c(N3CCC(N4CCN(C)CC4)CC3)cc2OC)ncc1Cl [Example C17]" assay_result=40
molecule="CCc1cc(Nc2ncc(Cl)c(Nc3ccc4nccnc4c3NS(C)(=O)=O)n2)c(OC)cc1N1CCC(N(C)C)CC1 [Example B5]" assay_result=36
molecule="CCc1cc(Nc2ncc(Cl)c(Nc3ccc(OC)c(OC)c3NS(C)(=O)=O)n2)c(OC)cc1N1CCC(N2CCOCC2)CC1 [Example C18]" assay_result=194
molecule="CCc1cc(Nc2ncc(Cl)c(Nc3ccc4nccnc4c3NS(C)(=O)=O)n2)c(OC)cc1N1CC2(C1)CN(C(C)C)C2 [Example B26]" assay_result=61
